Attribution: paper PMC5540273

tested on: GCN2(Kin.Dom.2,S808G); construct: gene EIF2AK4; conditions: concentration: 1 μM, replicates: in singlicate; n = 1;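 further: KINOMEscan kinase panel screen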
Each entry below carries its reported %Inh.
Metric Name: %Inh

Chem Smiles | Readout Value
COc1cc2ncn(-c3cc(OCc4ccncc4Br)c(C(N)=O)s3)c2cc1OC | 0%
CCn1c(-c2nonc2N)nc2ccccc21 | 24%
CCS(=O)(=O)c1ccc(OC)c(Nc2ncc(-c3ccc(F)cc3)o2)c1.Cl | 16%

====

test system: PIP5K1C; conditions: concentration: 1 μM, replicates: in singlicate; n = 1
Could you please classify the records by %Inh using these ranges: lower band: < 9%; central band: ≥ 9% and < 40%; upper band: ≥ 40%

Compound | Category Label
COc1cccc(-n2cnc3c(N)ncnc32)c1 | central band
COc1cc2ncn(-c3cc(OCc4ccncc4)c(C(N)=O)s3)c2cc1OC | central band
O=C1NC(=O)C(c2ccccc2)=C1Nc1cccc(O)c1 | lower band
Cc1cccc(-c2cc(-c3c[nH]nc3-c3ccccn3)ccn2)c1 | upper band
Nc1nc(N)c2nc(-c3ccccc3)[nH]c2n1 | upper band
CN1C(=O)C(Nc2cc(Cl)c(O)c(Cl)c2)=C(c2ccc(Cl)cc2)C1=O | central band
CCS(=O)(=O)c1ccc(OC)c(Nc2ncc(-c3ccc(F)cc3)o2)c1.Cl | central band
O=C(NCc1cccs1)c1cc(C(=O)c2c(Cl)cccc2Cl)c[nH]1 | lower band
CCC(=O)c1c(-c2ccccc2)c2cc(Cl)ccc2c(=O)n1Cc1ccc(C(=O)O)cc1 | central band
Nc1nccc2scc(-c3ccc4c(c3)CCN4C(=O)Cc3ccccc3)c12 | central band
COc1cc2nccc(Nc3ccc(OCc4ccc(NC(C)=O)cc4)cc3)c2cc1OC.Cl | central band
CCC(=O)c1c(-c2ccccc2)c2cc(Cl)ccc2c(=O)n1Cc1cc(C(=O)NC2CC2)n(C)n1 | lower band
Nc1nc(-c2ccccc2F)c(-c2ccnc3ccccc23)s1 | upper band
Cc1ccc(Oc2ccc(Nc3ncnc4cc[nH]c34)cc2C)cn1 | lower band
CCCNC(=O)Nc1ccc(Oc2ncnc3ccn(C)c23)cc1 | central band
COC(=O)c1c(-c2ccccc2)c2cc(Br)ccc2c(=O)n1Cc1ccc(S(C)(=O)=O)cc1 | lower band
COc1ccc(CNC(=O)NC2CCN(c3ccnc(Nc4ccc(F)cc4)n3)C2)cc1 (stereo not drawn) | upper band
COc1cccc(C2=C(Nc3cccc(C(=O)O)c3)C(=O)NC2=O)c1 | upper band
COc1ccc(Nc2nccc(N3CCC(NS(=O)(=O)c4ccc(NC(C)=O)cc4)C3)n2)cc1 (stereo not drawn) | upper band
CCc1nc(-c2cccc(C)c2)c(-c2ccncc2)s1 | central band
O=C(Nc1n[nH]c2nc(-c3ccccc3)c(Cl)cc12)C1CC1 | central band
C[C@@H]1CC[C@H](C(=O)NC2CCCCC2)CN1c1cc(-c2ccc3c(N)n[nH]c3c2)nc(N)n1 | upper band
CCn1c(-c2ccoc2)nc2cnccc21 | lower band
CCn1c(-c2nonc2N)nc2ccccc21 | lower band
OCCCNc1nccc(-c2c(-c3cccc(C(F)(F)F)c3)nn3cc(C(F)(F)F)ccc23)n1 | upper band
COc1cc(OC)cc(-c2cc3cnc(N)nc3nc2NC(=O)NC(C)(C)C)c1 | lower band
